Tested on: KIT(V559D)
TEST_METHOD_NOTES: KINOMEscan kinase binding assay
CONDITION_SET: at 1 μM
PROPERTY_LABEL: % Ctrl (%)
Write down the numeric answer in % and omit the unit.

Worked examples follow.
>>> measured_result("Cc1cc2c([nH]1)/C=C1\\C(=O)Nc3c(Cl)cc(cc31)-c1cn(C)nc1COC[C@@H](C)NC2=O")
100
>>> measured_result("C[C@@H]1COCc2nn(C)cc2-c2cc(Cl)c3c(c2)/C(=C/c2[nH]ccc2C(=O)N1)C(=O)N3")
100
>>> measured_result("Cc1cc2c([nH]1)/C=C1\\C(=O)Nc3ccc(cc31)-c1c(nn(C)c1C)COCCN(C)C2=O")
98
>>> measured_result("Cc1cc2c([nH]1)/C=C1\\C(=O)Nc3c(Cl)cc(cc31)-c1cn(C)nc1COC[C@@H](C)N(C)C2=O")
96

// switching to the query compound
Please report the recorded % Ctrl for Cc1cc2c([nH]1)/C=C1\C(=O)Nc3ccc(cc31)-c1c(nn(C)c1C)OCCCN(C)C2=O .
91

---

Tested on: ERBB3
TEST_METHOD_NOTES: KINOMEscan kinase binding assay
CONDITION_SET: at 1 μM
PROPERTY_LABEL: % Ctrl (%)
// units = %; emit number, no label

Illustrative cases are given below, each with its answer.
>>> measured_result("C[C@@H]1COCc2nn(C)cc2-c2cc(Cl)c3c(c2)/C(=C/c2[nH]ccc2C(=O)N1)C(=O)N3 [Cpd. 4]")
76
>>> measured_result("Cc1cc2c([nH]1)/C=C1\\C(=O)Nc3ccc(cc31)-c1c(nn(C)c1C)COCCN(C)C2=O [Cpd. 2]")
100
>>> measured_result("Cc1cc2c([nH]1)/C=C1\\C(=O)Nc3c(Cl)cc(cc31)-c1cn(C)nc1COC[C@@H](C)NC2=O [Cpd. 3]")
74
>>> measured_result("Cc1cc2c([nH]1)/C=C1\\C(=O)Nc3c(Cl)cc(cc31)-c1cn(C)nc1COC[C@@H](C)N(C)C2=O [Cpd. 5]")
71

Consider now this further molecule.
Using the record for Cc1cc2c([nH]1)/C=C1\C(=O)Nc3ccc(cc31)-c1c(nn(C)c1C)OCCCN(C)C2=O [Cpd. 1] , report its % Ctrl.
100

---

System: ALK(L1196M)
TEST_METHOD_NOTES: KINOMEscan kinase binding assay
CONDITION_SET: at 1 μM
Description: Kinase binding assays were performed at Eurofins/DiscoveRx using the general KINOMEscan Protocol (Fabian, M. A. et al., “A small molecule-kinase interaction map for clinical kinase inhibitors,” Nat. Biotechnol. 2005, 23(3):329-36). […] The kinase concentration in the eluates was measured by qPCR. […] Dissociation constants (Kds) for test compound-kinase interactions were calculated by measuring the amount of kinase captured on the solid support as a function of the test compound concentration.
Listed below: % Ctrl values for each entry.
Number plus unit, in that order.

>>> measured_result("Cc1cc2c([nH]1)/C=C1\\C(=O)Nc3c(Cl)cc(cc31)-c1cn(C)nc1COC[C@@H](C)N(C)C2=O [Cpd. 5]")
"86%"
>>> measured_result("Cc1cc2c([nH]1)/C=C1\\C(=O)Nc3ccc(cc31)-c1c(nn(C)c1C)COCCN(C)C2=O [Cpd. 2]")
"94%"
>>> measured_result("Cc1cc2c([nH]1)/C=C1\\C(=O)Nc3ccc(cc31)-c1c(nn(C)c1C)OCCCN(C)C2=O [Cpd. 1]")
"89%"
>>> measured_result("Cc1cc2c([nH]1)/C=C1\\C(=O)Nc3c(Cl)cc(cc31)-c1cn(C)nc1COC[C@@H](C)NC2=O [Cpd. 3]")
"94%"

// switching to the query compound
For the record C[C@@H]1COCc2nn(C)cc2-c2cc(Cl)c3c(c2)/C(=C/c2[nH]ccc2C(=O)N1)C(=O)N3 [Cpd. 4] , what value of % Ctrl is listed for ALK(L1196M)?
94%
